meta.source: patent US20250282874A1

Molecular target: T1, human PD-L1-Fc (human, UniProt Q9NZQ7 19-239)
T1 construct: also called hPD-L1-Fc; human PD-L1-Fc (Sino Biological, 70110-D02H); not shown: Fc part
T1 sequence (Q9NZQ7 19-239 limits assumed): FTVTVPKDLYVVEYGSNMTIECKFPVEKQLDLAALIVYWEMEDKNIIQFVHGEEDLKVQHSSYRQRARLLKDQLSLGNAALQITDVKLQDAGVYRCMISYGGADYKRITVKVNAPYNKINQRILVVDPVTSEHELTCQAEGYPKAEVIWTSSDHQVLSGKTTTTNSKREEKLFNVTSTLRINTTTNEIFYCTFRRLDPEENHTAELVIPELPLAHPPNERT
Assay: BLI; PD-L1-Fc loaded on the sensor, scFv in solution
measurement type: kon (M⁻¹ s⁻¹)
Output spec: scalar in M⁻¹ s⁻¹, unitless text.

(Q) Name the recorded kon for 4B6 scFv variant L-CDR1-2 (scFv, also called 4B6-L-CDR1-2) scFv: DIQMTQSPSSLSASVGDRVTITCKASQNVPAAVAWYQQKPGKAPKLLIYSASNRYTGVPSRFSGSGSGTDFTLTISSLQPEDIATYYCQQYSNYPTFGQGTKLEIKGGGGSGGGGSGGGGSQVQLVQSGAEVKKPGASVKVSCKASGYVFTDYYMNWVRQAPGQSLEWMGDINPNNAGTSYNHKFKGRVTVTVDKSISTAYMELSRLRSDDTAVYYCVKWGDGPFAYWGQGTLVTVSS .
(A) 271000
